Biological target: T1, TROP2 (UniProt P09758 27-323, limits assumed)
T1 sequence (looked up): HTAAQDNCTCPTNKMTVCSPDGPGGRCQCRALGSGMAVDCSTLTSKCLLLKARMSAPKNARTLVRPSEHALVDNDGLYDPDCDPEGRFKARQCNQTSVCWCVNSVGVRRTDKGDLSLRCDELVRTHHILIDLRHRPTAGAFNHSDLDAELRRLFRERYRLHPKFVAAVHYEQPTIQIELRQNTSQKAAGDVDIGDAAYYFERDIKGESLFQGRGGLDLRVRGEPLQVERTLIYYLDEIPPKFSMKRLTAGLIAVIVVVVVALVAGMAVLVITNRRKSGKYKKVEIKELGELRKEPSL
Experiment: cell-based or functional assay
PROPERTY LABEL: A431 IC50/µg/mL (in vitro cell viability assay) (µg/mL)
Write the number in µg/mL without appending the unit.

For reference, reported A431 IC50/µg/mL (in vitro cell viability assay) for ADC05 (hRS7 conjugated to CPD3) (antibody, human IgG1, kappa, V domains shown, linker-drug CPD3 on cysteines of reduced interchain disulfides; average DAR 3.99) VH: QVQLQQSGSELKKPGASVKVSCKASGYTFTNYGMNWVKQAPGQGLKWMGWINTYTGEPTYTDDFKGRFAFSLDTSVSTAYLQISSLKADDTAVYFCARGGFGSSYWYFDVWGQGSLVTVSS VL: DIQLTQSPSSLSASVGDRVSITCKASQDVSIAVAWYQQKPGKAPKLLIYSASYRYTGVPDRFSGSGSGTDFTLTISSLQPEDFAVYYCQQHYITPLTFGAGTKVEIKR stands at 0.024
